- methodSummary: Quantum yield in aqueous solution (Tris) and in the presence of surfactants
- Assay type: physicochemical
- protocolConditions: aqueous solution, Tris, no surfactant
endpoint: φTris (quantum yield)
Please reply with the number alone, leaving off any unit.

Looking for the measured φTris (quantum yield) of `COc1ccc2cc(C#Cc3c[c]4c(cc3OC)-c3cc(OC)c(C#Cc5ccc6cc(OC)ccc6c5)c[c]3[Ge]4([c]3ccccc3)[c]3ccccc3)ccc2c1` , can you help?
0.094

Looking for the measured φTris (quantum yield) of `COc1cc2c(cc1C#Cc1ccc(C)cc1)[Si](c1ccccc1)(c1ccccc1)c1cc(C#Cc3ccc(C)cc3)c(OC)cc1-2` , can you help?
0.24

Looking for the measured φTris (quantum yield) of `COc1cc2c(cc1C#Cc1ccc(-c3ccccc3)cc1)[Si](c1ccccc1)(c1ccccc1)c1cc(C#Cc3ccc(-c4ccccc4)cc3)c(OC)cc1-2` , can you help?
0.11

Looking for the measured φTris (quantum yield) of `COc1cc2c(cc1C#Cc1cccc(F)c1)[Si](c1ccccc1)(c1ccccc1)c1cc(C#Cc3cccc(F)c3)c(OC)cc1-2` , can you help?
0.34

----------
Please provide measured φTX (quantum yield) for the entries that follow.
- methodSummary: Quantum yield in aqueous solution (Tris) and in the presence of surfactants
- Type: physicochemical
- protocolConditions: 0.6 mM TX-100
Please reply with the number alone, leaving off any unit.

Looking for the measured φTX (quantum yield) of `COc1ccc2cc(C#Cc3c[c]4c(cc3OC)-c3cc(OC)c(C#Cc5ccc6cc(OC)ccc6c5)c[c]3[Ge]4([c]3ccccc3)[c]3ccccc3)ccc2c1` , can you help?
0.85

Looking for the measured φTX (quantum yield) of `COc1cc2c(cc1C#Cc1ccc(C)cc1)[Si](c1ccccc1)(c1ccccc1)c1cc(C#Cc3ccc(C)cc3)c(OC)cc1-2` , can you help?
0.97

Looking for the measured φTX (quantum yield) of `COc1cc2c(cc1C#Cc1cccc(F)c1)[Si](c1ccccc1)(c1ccccc1)c1cc(C#Cc3cccc(F)c3)c(OC)cc1-2` , can you help?
1.0

Looking for the measured φTX (quantum yield) of `COc1cc2c(cc1C#Cc1ccc(-c3ccccc3)cc1)[Si](c1ccccc1)(c1ccccc1)c1cc(C#Cc3ccc(-c4ccccc4)cc3)c(OC)cc1-2` , can you help?
0.94

----------
Please provide measured φSDS (quantum yield) for the entries that follow.
- methodSummary: Quantum yield in aqueous solution (Tris) and in the presence of surfactants
- Type: physicochemical
- protocolConditions: 30 mM SDS
Please reply with the number alone, leaving off any unit.

Looking for the measured φSDS (quantum yield) of `COc1cc2c(cc1C#Cc1ccc(-c3ccccc3)cc1)[Si](c1ccccc1)(c1ccccc1)c1cc(C#Cc3ccc(-c4ccccc4)cc3)c(OC)cc1-2` , can you help?
0.88

Looking for the measured φSDS (quantum yield) of `COc1ccc2cc(C#Cc3c[c]4c(cc3OC)-c3cc(OC)c(C#Cc5ccc6cc(OC)ccc6c5)c[c]3[Ge]4([c]3ccccc3)[c]3ccccc3)ccc2c1` , can you help?
0.30

Looking for the measured φSDS (quantum yield) of `COc1cc2c(cc1C#Cc1cccc(F)c1)[Si](c1ccccc1)(c1ccccc1)c1cc(C#Cc3cccc(F)c3)c(OC)cc1-2` , can you help?
0.55

Looking for the measured φSDS (quantum yield) of `COc1cc2c(cc1C#Cc1ccc(C)cc1)[Si](c1ccccc1)(c1ccccc1)c1cc(C#Cc3ccc(C)cc3)c(OC)cc1-2` , can you help?
0.55
